Data provenance is PubChem BioAssay (NCATS).

Assay: qHTS for Inhibitors of the Functional Ribonucleoprotein Complex (vRNP) of Lassa (LASV) Arenavirus: LASV Primary Screen - GLuc reporter signal (AID 1347082); note: nearly all actives have a fitted effect of over 60% in size
Conditions: LASV minigenome vRNP, Gaussia luciferase reporter; series mostly up to 57.5 µM
Inconclusive results are not listed. Activity calls are given as the source filed them. Calls come from the whole dose curve; tested in HEK293 reporter line. Peptide text beside a SMILES is read from it. * marks the point of attachment. Cbz = O=C(OCc1ccccc1)*
Pick one: label 1 = active, label 0 = inactive

Task item: Name the outcome recorded for CCS(=O)(=O)Nc1ccc2[nH]c(O)c(C(=Nc3ccc(CN4CCCCC4)cc3)c3ccccc3)c2c1 in the assay.
Reply: label 1

Task item: Identify the outcome logged in this assay for the compound shown: CC/C=C\CCOC(=O)c1ccccc1
Reply: label 0

Task item: Please indicate how the test categorized O=C(O)c1cc2cc(F)ccc2[nH]1 .
Reply: label 0

Task item: Hey, what did the test say about CN(C)CCC(c1ccc(Br)cc1)c1ccccn1 (stereo not given) ?
Reply: label 0

Task item: Please state the recorded outcome for this compound: CC(C)c1cc(-c2n[nH]c(=O)n2-c2ccc3c(ccn3C)c2)c(O)cc1O
Reply: label 1

Task item: Called result for CCN1C[C@]2(C)CC[C@H](OC)[C@]34C5C[C@@H]6CC[C@@](O)(C5C(=O)O6)C(C13)[C@@H](OC(=O)c1ccccc1)C24
Reply: label 0

Task item: What is the recorded call for this compound in the test? C[C@@H]1O[C@@H](O[C@H]2[C@H](O)[C@@H](O)[C@H](Oc3c(-c4ccc(O)c(O)c4)oc4cc(O)cc(O)c4c3=O)O[C@@H]2CO)[C@H](O)[C@H](O)[C@H]1O
Reply: label 0

Task item: Outcome? O=C(O)/C(=C/c1c(C(=O)O)[nH]c2cc(Cl)cc(Cl)c12)c1ccccc1
Reply: label 0

Task item: Hello, I am checking results. What call was entered for COc1ccc(C2CC(c3ccccc3)=NN2c2ccc(S(N)(=O)=O)cc2)cc1 (stereo not given) ?
Reply: label 0

Task item: Kindly provide the recorded test outcome for the following compound: CCCCC(C=O)NC(=O)C(CC(C)C)NC(=O)OCc1ccccc1 (stereo not given)
Reply: label 0

Task item: Fill in: this test's call for CC[C@H](C)/C=C(C)/C=C/C1=CC2=CC(=O)[C@]3(C)OC(=O)[C@@H](C(C)=O)[C@@H]3C2=CO1 is ___
Reply: label 0

Task item: Just curious, what result did CC(C)C[C@@H](C=O)NC(=O)[C@H](CC(C)C)NC(=O)[C@H](CC(C)C)NC(=O)OCc1ccccc1 (Cbz-Leu-Leu-Leu-aldehyde) get here?
Reply: label 1

Task item: In this assay, the call recorded for CN1CCC(COc2cnc(-c3cccc(Cn4nc(-c5cccc(C#N)c5)ccc4=O)c3)nc2)CC1 was what?
Reply: label 1

Task item: I would be grateful if you could indicate the recorded call for CC1(C)CC(O)CC(C)(C)N1[O] .
Reply: label 0

Task item: GET /call?item= C[N+](C)(C)CCO returns the recorded outcome of this test.
Reply: label 0

Task item: Which outcome was entered for the compound C=CCN1CCc2c(cc(O)c(O)c2Cl)C(c2ccccc2)C1 (stereo not given) in this test?
Reply: label 0

Task item: Per the records of this test, what outcome belongs to OCc1ccc(-c2ccc(-c3ccc(CO)s3)o2)s1 ?
Reply: label 0

Task item: Field: outcome | Entry: COc1cc(C)cc(C(=O)O)c1C1=C(O)c2cccc(O)c2C(=O)C1=O
Reply: label 0

Task item: Recorded test outcome, item C=C[C@@H]1CN2CC[C@@H]1C[C@H]2[C@H](O)c1ccnc2ccc(OC)cc12
Reply: label 0

Task item: Tell me the recorded outcome of this test for CC/C=C\CCOC(=O)C(C)C .
Reply: label 0

---

Assay: qHTS for Inhibitors of the Functional Ribonucleoprotein Complex (vRNP) of Lassa (LASV) Arenavirus: LASV Primary Screen - GLuc reporter signal (AID 1347082); note: nearly all actives have a fitted effect of over 60% in size
Details: LASV minigenome vRNP, Gaussia luciferase reporter; series mostly up to 57.5 µM
Inconclusive results are not listed. Active and inactive are the calls of the source. Calls follow the shape of the full dose curve; tested in HEK293 reporter line.
Respond with a class label; see active, inactive

Task item: Recorded test call requested for COc1cc2c(cc1-c1c(C)noc1C)ncc1[nH]c(=O)n([C@H](C)c3ccccn3)c12
Reply: active

Task item: So what was the verdict on CCCCCCCCCC[Si](C)(C)CCC(=O)NC(Cc1ccc(C)cc1)c1ccccc1 (stereo not drawn) in this test?
Reply: inactive

Task item: What did the test return for C=C(C)[C@@H]1CC=C(C=O)CC1 ?
Reply: inactive

---

Tested on: CASKI
Experiment: Primary qHTS to identify gynecologic anti-cancer compounds using libraries of approved drugs and bioactive compounds (AID 1345084); note: nearly all actives have a fitted effect of over 55% in size
Conditions: Gynecologic cancer cell panel viability, ATPlite luminescence, 48 h; series mostly up to 57.5 µM
Inconclusive results are not listed. The source made the active and inactive calls. Calls follow the shape of the dose curve; as a rule, active = well fitted cell-killing curve with a large enough effect; inconclusive = small, poorly fitted or top-dose-only effect, or effect the other way; inactive = flat fitted curve, though single readings scatter.
Hi there, use one of these labels in your reply, thanks! YES (active), NO (inactive)

Task item: How was Cc1sc2c(c1C)C(c1ccc(Cl)cc1)=N[C@@H](CC(N)=O)c1nnc(C)n1-2 classified in this test?
Reply: NO

Task item: Assay outcome for CCCCCn1cc(C(=O)C2C(C)(C)C2(C)C)c2ccccc21 : what was it?
Reply: NO

Task item: Assay outcome for CC(=O)OC[C@]12C[C@H](OC(=O)CC(C)C)C(C)=C[C@H]1O[C@@H]1[C@H](O)[C@@H](O)[C@@]2(C)[C@]12CO2 : what was it?
Reply: YES

Task item: What did this assay record as the result for C=C(CO)C(=O)O[C@H]1CC(=C)[C@@H]2C[C@H](O)C(=C)[C@@H]2[C@H]2OC(=O)C(=C)[C@@H]21 ?
Reply: NO

Task item: Per the assay record, what outcome was assigned to O=C(N1CCCCC1Cc1ccccc1)n1cc(-c2ccc(-c3ccccc3)cc2)nn1 (centres undefined) ?
Reply: NO

Task item: Would you mind telling me which call this test gave CC[C@@H](C)[C@H]1C(=O)O[C@H](C(C)C)C(=O)N(C)[C@@H](C(C)C)C(=O)O[C@H](C(C)C)C(=O)N(C)[C@@H](C(C)C)C(=O)O[C@H](C(C)C)C(=O)N1C ?
Reply: NO

Task item: Tell me the recorded outcome of this test for Cc1c(N2C(=O)[C@@H]3[C@H](O)CCN3C2=O)ccc(C#N)c1Cl .
Reply: NO

Task item: Could you please tell me the result logged for CN1CCc2cc3c(cc2[C@H]1[C@@H]1OC(=O)c2c1ccc1c2OCO1)OCO3 in this assay?
Reply: NO

Task item: Short answer needed: outcome of this test for CC(=O)OC[C@]12[C@H](OC(C)=O)C(=O)[C@@H]3[C@@H](O)[C@@]14O[C@@]3(C)COC(=O)c1cccnc1[C@@H](C)[C@H](C)C(=O)O[C@@H]([C@H](OC(C)=O)[C@@H]2OC(C)=O)[C@]4(C)O ?
Reply: NO

Task item: # lookup: test call for N#Cc1ccc(N2CCN(C(=O)COc3ccc4[nH]cc(CCN)c4c3)CC2)cc1
Reply: NO

Task item: Recorded call for CC(=O)OC[C@]12C[C@H](OC(C)=O)C(C)=C[C@H]1O[C@@H]1[C@H](O)[C@@H](O)[C@@]2(C)[C@]12CO2 ?
Reply: YES

Task item: I would be grateful if you could indicate the recorded call for C[C@]12CC[C@H](O)C[C@H]1CC[C@@H]1[C@@H]2[C@H](O)C[C@]2(C)[C@@H](c3ccc(=O)oc3)CC[C@]12O .
Reply: YES

Task item: // outcome(item) with item = C#C[C@]1(O)CC[C@H]2[C@@H]3CC[C@H]4Cc5nc6nc7ccccc7n6cc5C[C@]4(C)[C@H]3CC[C@@]21C
Reply: NO

Task item: Status in this test for O=S(=O)(c1ccccc1F)N1CCOc2c(N3CCNCC3)cccc21 ?
Reply: NO

Task item: // return assay outcome for COc1ccc2c3c([nH]c2c1)C(C=C(C)C)N1C(=O)C2CCCN2C(=O)C1C3 (centres undefined)
Reply: NO

Task item: Per the records of this test, what outcome belongs to CCOc1ccc(Oc2ccc(OCc3cc(F)ccc3F)cc2)c(N)c1 ?
Reply: NO

Task item: Query: recorded result category for c1ccc([C@@H]2C[C@H]2NC2CCNCC2)cc1 in this test
Reply: NO

Task item: What call does the record list for CN(C(=O)C(c1ccccc1)c1ccccc1)[C@H](CN1CC[C@H](O)C1)c1ccccc1 ?
Reply: NO

Task item: Called result for C[C@H](CCC(=O)O)C[C@H](C)C[C@H](C)C(=O)/C=C(\O)[C@H](C)C[C@H](C)C/C=C/[C@@H](C)[C@@H](O)[C@@H](C)[C@@H](O)C[C@@H]1CC[C@@](C)([C@H]2CC[C@@](C)([C@@H](C)O)O2)O1
Reply: NO

Task item: Hi, sorry to bother you, what did the test record for C=C1C(=O)O[C@@H]2[C@H]3C(=C)[C@@H](O)C[C@H]3C(=C)C[C@@H](O)[C@@H]12 ?
Reply: NO

Task item: Please state the recorded outcome for this compound: C=C1[C@@]23C(=O)O[C@H](C)[C@]24O[C@@]2(C(=C)[C@]5(C=CC(=O)OC5(C)C)CC[C@]32C)[C@H](O)[C@@]1(C)OC4=O
Reply: NO

Task item: Dear all, I need the recorded test outcome for COc1ccsc1CNCC[C@@]1(c2ccccn2)CCOC2(CCCC2)C1 , thank you.
Reply: NO

Task item: Can you look up the reported call for Cc1cccc(NC(=O)c2ccc(C(F)(F)F)cc2C(=O)O)n1 for me?
Reply: NO

Task item: Tell me the assay call for COC1CC(OC2CCC3(C=O)C(CCC4C3CCC3(C)C(C5=CC(=O)OC5)CCC43O)C2)OC(C)C1O (centres undefined) please.
Reply: YES

Task item: Which result was noted for this compound in the test: COc1cccc(NCC(F)Cn2c3ccc(Br)cc3c3cc(Br)ccc32)c1 (centres undefined)
Reply: YES

Task item: Give the logged outcome of this assay for the following compound: COc1cc2c(c(OC)c1OC)-c1ccc(SC)c(=O)cc1[C@@H](NC(C)=O)CC2
Reply: NO

Task item: Fill in: this test's call for CCOC(=O)c1ccc(-c2ccc(OC(=O)N(C)Cc3cccc(-c4ccncc4)c3)cc2)cc1 is ___
Reply: NO

Task item: Recorded test outcome, item CCC1C2CC3C4N(C)c5ccccc5C45CC(C2C5O)N3C1O (centres undefined)
Reply: NO

Task item: I would be grateful if you could indicate the recorded call for CCC(C)(O)C1(C(=O)O)COC(=O)C1 (centres undefined) .
Reply: NO

Task item: Hello, I am checking results. What call was entered for CC12CCC3C(C1)c1c(cc(O)c(C(=O)c4ccccc4)c1OC3(C)C)O2 (centres undefined) ?
Reply: NO

Task item: Tell me the recorded outcome of this test for O=C1N[C@@H](Cc2ccccc2)CN2CCCC[C@@H]12 .
Reply: NO

Task item: So what was the verdict on CN1CN(c2ccccc2)C2(CCN(CCCC(=O)c3ccc(F)cc3)CC2)C1=O in this test?
Reply: NO

Task item: Per the assay record, what outcome was assigned to NC(=O)[C@@H](CC1CC1)[C@@H](CCC(F)(F)F)C(=O)N[C@H]1N=C(c2ccccc2)c2cccc(F)c2NC1=O ?
Reply: NO

Task item: Test call for this compound, please: CCC1=CC2CN3CCc4c([nH]c5ccccc45)[C@@](C(=O)OC)(C2)[C@@H]13
Reply: NO
